# Tested on: SF-539 CNS
# Assay: NCI tumour cell line growth inhibition, 48 h; in the data active = GI50 below about 0.43 µM; inactive = the rest
Assign a class; possible classes are yes (1) for active, no (0) for inactive

These solved cases illustrate the format of a correct answer.
>>> df
                                   molecule  qualitative_label
0  COC(=O)[C@@]1(C)CCC[C@]2(C)[C@H]3Cc4occc4[C@H](C)[C@@H]3CC[C@@]12O             no (0)
1         C/C(=N\[N+](C)(C)C)c1ccc(C)c(C)c1             no (0)
2      COc1ccc(/C=C/C(=O)c2ccc(Cl)cc2Cl)cc1             no (0)

From here, focus on the item given below.
Q. For C/C=C/C1=CN2C(=O)c3cc(OC4OC(C)C(NC)C(C)(O)C4O)c(C)cc3N=C[C@@H]2C1 (some centres undefined) , what call appears in the results of this test?
A. yes (1)

----------
# Test system: SK-MEL-2 melanoma
# Assay: NCI tumour cell line growth inhibition, 48 h
Reported Endpoint: GI50

Some solved cases for reference:
In [3]: df
Out[3]:
                                   compound  reported_endpoint    result
0  COc1ccc(C2=C(c3cn(C)c4ccccc34)C(=O)OC2)cc1OC               GI50   4.34 µM
1  CC(C)OP(=O)(OC(C)C)c1ncc(-c2ccc(C(F)(F)F)cc2)c(NC2CCCCCC2)n1               GI50   > 10 µM
2  COc1ccc(OC)c(/C=C/C(=O)N/N=C/c2ccccc2)c1               GI50   2.98 µM
3  Nc1ccccc1NC(=O)c1ccc(CNC(=O)OCc2cccnc2)cc1               GI50    1.1 µM
4  O=S(=O)(Nc1ccc(Cl)c(F)c1)c1ccc(-c2cnc(C3CC3)o2)cc1               GI50  0.603 µM
5  Nc1nc(/C=C\c2ccc([N+](=O)[O-])s2)nc(N2CCOCC2)n1               GI50   17.4 µM
6   CC(=O)Nc1c(Br)cc2c(c1Br)Cc1cc(Br)ccc1-2               GI50   12.6 µM
7  N#Cc1cnc(=O)n(C2CC(O)C(CO)O2)c1 (stereo not given)               GI50  > 100 µM
8  O=C(NC1CCCCC1)OCc1c(COC(=O)NC2CCCCC2)c(-c2ccc(Cl)c(Cl)c2)n2c1CCC2               GI50   3.72 µM

Q. Look up GI50 with SK-MEL-2 melanoma for this compound: O=C1OCC(C#Cc2ccccc2)=C1Br
A. 18.8 µM

----------
# System: HOP-62 NSCLC
# Assay: NCI tumour cell line growth inhibition, 48 h
Reported Endpoint: GI50

// known answers, use as guide
                                     smiles  target_system  reported_endpoint    result
0     CC(C)N(Cc1c(F)cccc1F)c1ccc(CO)c(Cl)c1   HOP-62 NSCLC               GI50  0.553 µM
1  COc1ccc(C(=O)c2cc(OC)c(OC)c(OC)c2)cc1OC(=O)C(Cl)(Cl)Cl   HOP-62 NSCLC               GI50  0.083 µM
2  CC(C)(C)C(=O)OCCNc1nc(-c2ccccc2)nc2ccccc12   HOP-62 NSCLC               GI50     13 µM
3  CC(C)OP(=O)(OC(C)C)c1ncc(-c2ccc(C(F)(F)F)cc2)c(NC2CCCCCC2)n1   HOP-62 NSCLC               GI50   > 10 µM

Q. Tell me the measured GI50 of COc1cc2c(cc1O)CC[C@@H]1[C@@H]2CC[C@]2(C)[C@@H](OCCCN(C)C)CC[C@@H]12 , please.
A. 0.182 µM

----------
# Tested on: UACC-62 melanoma
# Assay: NCI tumour cell line growth inhibition, 48 h
Would you mind telling me the reported TGI of each entry?

Below are worked cases with known answers.
In [3]: df
Out[3]:
                                   compound     target_system  reported_endpoint    result
0          CC(=O)Nc1ccccc1S(=O)(=O)c1ccccc1  UACC-62 melanoma                TGI  > 100 µM
1  CC(=O)OC(C[C@H](C)[C@@H]1CC[C@]2(C)C3=CCC4C(C)(C)C(=O)CC[C@]4(C)C3CCC12C)C1OC1(C)C (some centres undefined)  UACC-62 melanoma                TGI  > 100 µM

// for each compound in input: emit TGI
1. CC(=O)OCCn1c(Cc2ccc(C)cc2)nn(C(C)=O)c1=O
2. COC(=O)/C(=N\NC(N)=O)C(C(=O)C(=O)Nc1ccccc1C(=O)OC)c1nc2ccc(C(=O)c3ccccc3)cc2[nH]c1=O (centres undefined)
3. Cc1ccc(NCCN(C)C)c2c(=O)c3cc(O)ccc3oc12
4. CCN(CC)CC1CCCCN1CC(=O)N1c2ccccc2NC(=O)c2ccccc21 (centres undefined)
5. COc1ccc(/C=C/c2cc(OC)c(OC)c(OC)c2)cc1O[Si](C)(C)C(C)(C)C
6. COc1ccc(-c2nc3c(-c4ccccc4)nc(-c4ccccc4)cn3c2-c2ccc(OC)cc2)cc1
7. COC(=O)C(=O)C(C(=O)C(=O)Nc1ccc([N+](=O)[O-])cc1[N+](=O)[O-])c1nc2ccc(Cl)cc2[nH]c1=O (centres undefined)

A.
> 100 µM
> 100 µM
23 µM
> 100 µM
14.1 µM
> 100 µM
> 100 µM

Would you mind listing TGI for each of the following compounds?
1. Cn1c(=O)nc2n(-c3cccc(Cl)c3)c3ccccc3nc-2c1=O
2. COc1cc([C@@H]2c3cc4c(c(O[C@@H]5O[C@H]6CO[C@@H](C)O[C@H]6[C@H](O)[C@@H]5O)c3C[C@H]3COC(=O)[C@@H]32)OCO4)cc(OC)c1O
3. COC1(OC)CC2CCCCC2=C(C)N1S(=O)(=O)c1ccccc1 (centres undefined)
4. CCc1cccc(C)c1NC(=O)CCc1n[nH]c(=S)o1
5. O=C(O)/C=C\C(=O)c1ccc(Cl)cc1

A.
1: 6.36 µM; 2: > 100 µM; 3: > 100 µM; 4: > 100 µM; 5: > 75.4 µM

Look up TGI for the entries below, preserving their order.
1. CC1NOC(=O)C1N=Nc1ccccc1Br (centres undefined)
2. COc1ccc2c(c1)[n+](=O)c(C(=O)C/C(=N/NC(=O)c1ccccc1O)C(=O)Nc1ccc(Cl)c(C(F)(F)F)c1)c(C)n2[O-]

A.
1. 48.1 µM
2. > 100 µM

Provide TGI values for the following items, in order.
1. O=S(=O)(Nc1ccc(Cl)c(F)c1)c1ccc(-c2cnc(C3CC3)o2)cc1
2. COC(=O)C(CCCCCCCC(C(=O)OC)c1nc2n(c1O)C(=N)N=N2)c1nc2n(c1O)C(=N)N=N2 (centres undefined)

A.
8 µM
> 100 µM

Q. Need TGI, item CCCC(=O)OCC1OC(n2cnc3c(=S)nc(N)[nH]c32)C(OC(=O)CCC)C1OC(=O)CCC (centres undefined)
A. 16 µM

----------
# System: OVCAR-4 ovarian
# Assay: NCI tumour cell line growth inhibition, 48 h
For each entry below, report its TGI value.

# example entries with known answers
                                   molecule    result
0  C[C@@H](CO)C1=C(O)c2ccc3c(c2C(=O)C1=O)CCCC3(C)C  > 100 µM
1  COC(=O)[C@@]1(C)CCC[C@]2(C)[C@H]3Cc4occc4[C@H](C)[C@@H]3CC[C@@]12O  > 100 µM
2  O=C1NC(=O)C(c2c[nH]c3cc(Br)ccc23)=C1c1cnc[nH]1  > 100 µM
3  O=C(NC1CCCCC1)OCc1c(COC(=O)NC2CCCCC2)c(-c2ccc(Cl)c(Cl)c2)n2c1CCC2   62.9 µM
4  CC(C)OP(=O)(OC(C)C)c1ncc(-c2ccc(C(F)(F)F)cc2)c(NC2CCCCCC2)n1   > 10 µM

List the reported TGI of each molecule below.
1. CN1C[C@@H](c2ccc(Cl)cc2)[C@]2(NC(=S)N(c3ccc(F)c(Cl)c3)C2=O)[C@@]12C(=O)NC1C=CC(Cl)=C[C@H]12 (some centres undefined)
2. CC(C)(Br)C(Br)CCC1(C(Br)CBr)CO1 (centres undefined)
3. CCCCCC(/C=C/[C@@H]1[C@H]2CC(=O)O[C@H]2C[C@H]1N1CCOCC1)OC1CCCO1 (some centres undefined)
4. O=C(c1cccc(F)c1F)N1CCc2c([nH]c3ccccc23)C1c1ccc2c(c1)OCO2 (centres undefined)

A.
1: 18.6 µM; 2: > 10 µM; 3: > 100 µM; 4: 67.8 µM
